# Protocol: in vivo
# Parameters: species or system Sprague Dawley rats
# Assay Setup: male, Sprague Dawley, rat, 4 mg/kg
Starred links: 1 amine or outer side, 2 acyl side, 3 side chain; linkers in the order of their positions; H or OH if unused. Non-standard residues stand in square brackets, D forms with d. Groups on a side chain read outwards from the residue. *: point of attachment. C18 diacid = O=C(O)CCCCCCCCCCCCCCCCC(=O)*; αMePhe(2-F) = C[C@](N)(Cc1ccccc1F)C(=O)O; γGlu = O=C(O)[C@H](CCC(=O)[*:2])N[*:1]; αMeY = C[C@](N)(Cc1ccc(O)cc1)C(=O)O; 4Pal = N[C@@H](Cc1ccncc1)C(=O)O; αMeL = CC(C)C[C@](C)(N)C(=O)O; αMeS = C[C@](N)(CO)C(=O)O; Orn = NCCC[C@H](N)C(=O)O; AEEA = NCCOCCOCC(=O)O; Aib = CC(C)(N)C(=O)O
Readout Type: half-life (h)
Value expressed in h; do not type the unit.

Examples with answers:
| Substance | half-life [h] |
| --- | --- |
| H-Y[Aib]QGT[αMePhe(2-F)]TSD[4Pal][αMeS]I[αMeL]LD[Orn]K([AEEA-γGlu-C18 diacid])AQ[Aib][Orn]FI[dE][αMeY]LIEGGPSSGEPPPSEG-NH2 [Example 401] | 6.6 |
| H-Y[Aib]QGT[αMePhe(2-F)]TSD[4Pal][αMeS]I[αMeL]LD[Orn]K([AEEA-AEEA-γGlu-C18 diacid])AQ[Aib][Orn]FI[dE][αMeY]LIEGGPSSGAPEPSEG-NH2 [Example 472] | 9.4 |

Next item in the queue.
Please give the measured half-life for this substance: H-Y[Aib]QGT[αMePhe(2-F)]TSD[4Pal][αMeS]I[αMeL]LD[Orn]K([AEEA-γGlu-C18 diacid])AQ[Aib][Orn]FI[dE][αMeY]LIEGGPSSGEPPPEEG-NH2 [Example 462] 11

Every entry's value here was drawn from patent US20240270821A1.
